Source of measurements: PubChem BioAssay (NCI)

System: SF-539 CNS
test-name: NCI-60 one-dose screen, 48 h (100 = growth as untreated, 0 = no growth, -100 = all killed)
assay-context: 10 µM unless noted
Compounds without any hit were thinned out: in the full panel of roughly 83,000, 20% have a hit.
Checkbox rule: growth lower than 90% = 1; growth not lower than 90% = -1.

# compound, label-value
measured = [
    ("O=C1CCCN1C(O)CCN(Cc1ccccc1)Cc1ccc(Cl)cc1 (stereo not given)", -1),
    ("COc1cccc(C2C(C#N)=C(N)Oc3cc4c(cc32)OCO4)c1 (stereo not given)", 1),
    ("CCOC(=O)c1ccc2c(c1)[n+](=O)c(C(=O)c1ccc3ccccc3c1)c(C(F)(F)F)n2[O-]", 1),
    ("CC(C)CCC(=O)[C@@H](C)[C@H]1[C@@H](OC2OCC(O)C(O)C2NS(C)(=O)=O)C[C@H]2[C@@H]3CC=C4C[C@@H](O)CC[C@]4(C)[C@H]3CC[C@]12C (stereo not given in full)", 1),
    ("CCN(CC)c1ccc(/C=N/N=C(N)N)cc1", 1),
    ("Nc1c(N)c2ccccc2c2ccccc12", -1),
]

* * *

Tested on: NCI-H226 lung
test-name: NCI-60 one-dose screen, 48 h
assay-context: 10 µM unless noted
Compounds without any hit were thinned out: in the full panel of roughly 83,000, 20% have a hit. The source made the active and inactive calls. Rule for the calls: active = growth percent below 10; inactive = the rest.
Classes used: active, inactive

# compound, label-value
data = [
    ("c1ccc(-c2ccc(-c3ccccc3)[nH]2)cc1", "inactive"),
    ("CCN(CC)CC(=O)Nc1c(C)ccc(N)c1C", "inactive"),
    ("Cc1ccc(Nc2cc(Cl)c([N+](=O)[O-])cc2[N+](=O)[O-])cc1", "inactive"),
    ("CC1CCN(CCCCCOc2ccc3oc4ccc(Cl)cc4c(=O)c3c2)CC1", "inactive"),
    ("Cc1ccc([C@H]2c3[nH]c4ccccc4c3C[C@H]3C(=O)N(CCCCCCC(=O)NO)CC(=O)N23)cc1", "inactive"),
    ("Nc1ccc(C2=NNC(=O)Cc3cc4c(cc32)OCCO4)cc1Cl", "inactive"),
    ("CCOC(=O)N1C2CCC(C2)N1C(=O)OCC", "inactive"),
    ("CCN(CC)c1ccc(/C=C2/NC(=O)NC2=O)cc1", "inactive"),
    ("Cc1cc(Nc2c3ccccc3nc3ccccc23)ccc1NS(C)(=O)=O", "inactive"),
    ("CCOC(=O)Cc1cc(Br)c(OCc2ccccc2)c(Br)c1", "inactive"),
    ("CCCCCCCCCCCCNC(=O)N[C@H](C(=O)N[C@H]1/C=C/CCNC(=O)/C=C/[C@H](C)NC1=O)C(C)C", "active"),
    ("c1ccc2oc(-c3cnc4nonc4n3)cc2c1", "inactive"),
    ("O=C(c1ccc(OCCN2CCCCC2)cc1)c1c(-c2ccc(O)cc2)sc2cc(O)ccc12", "inactive"),
    ("ClC1=NC(Cl)C(Cl)=N/C1=N\\c1ncn[nH]1 (configuration not stated)", "inactive"),
    ("Nc1c(Br)cc2c(c1Br)Cc1cc(Cl)ccc1-2", "inactive"),
    ("O=C1NN(C(=O)c2ccccc2)C(c2ccc(Cl)c(Cl)c2)=C/C1=C\\c1ccccc1[N+](=O)[O-]", "active"),
    ("CCn1c(Cc2ccccc2Nc2c(Cl)cccc2Cl)nnc1SCC(=O)Nc1cccc(OC)c1", "inactive"),
    ("COc1cc(C2CC(=O)Nc3c2cnn3C)cc(OC)c1OC (configuration not stated)", "inactive"),
    ("c1cc2c(cc1-c1cnc3nonc3n1)OCO2", "inactive"),
    ("COc1cc(C2CC(c3cccc(Nc4ccnc5cc(Cl)ccc45)c3)=NN2C=O)cc(OC)c1OC (configuration not stated)", "active"),
    ("O=C(Nc1cccc(C2=NCCN2)c1)c1ccc(N=Nc2ccc(C(=O)Nc3cccc(C4=NCCN4)c3)cc2)cc1", "inactive"),
    ("COc1cc(/C=C/c2cc(/C=C/c3ccc(O)c(OC)c3)n(C(=O)Nc3ccc(F)c(Cl)c3)n2)ccc1O", "active"),
    ("COC(=O)c1ccc2c(c1)nc(-c1ccc(Cl)cc1)n2-c1cc(C(C)(C)C)[nH]n1", "inactive"),
    ("O=[N+]([O-])c1ccc(Sc2nc(Cl)nc(NC3CCCC3)n2)cc1", "active"),
    ("COc1ccc(C2NC(=O)c3cc4c(cc3N2)OCO4)cc1 (configuration not stated)", "active"),
    ("COc1ccc(-c2cnnn2-c2nonc2-n2cccc2)cc1", "inactive"),
    ("O=C(CC(=O)c1cccc(Cl)c1)c1cccc(Cl)c1", "inactive"),
    ("C=C(C)[C@@H]1CC[C@]2(C(=O)O)CC[C@]3(C)[C@H](CC[C@@H]4[C@@]5(C)C[C@@H](CC#Cc6ccc(C(C)=O)s6)[C@H](O)C(C)(C)[C@@H]5CC[C@]43C)[C@@H]12", "inactive"),
    ("CCCCCCCCN(CCCCCCCC)C(=O)CCl", "inactive"),
    ("Nc1cc(C(=O)O)cc(C(=O)O)c1", "inactive"),
    ("CCCCCN(CCCCC)C(=O)C(CCC(=O)O)NC(=O)c1ccc(Cl)c(Cl)c1 (configuration not stated)", "inactive"),
    ("COc1cccc(/C=N\\Nc2ccc([N+](=O)[O-])cn2)c1O", "inactive"),
    ("COc1cccc(-c2nc3sccn3c2-c2ccnc(NCCN3CCCNS3(=O)=O)n2)c1", "inactive"),
    ("CCOC(=O)C(Cc1ccccc1)n1c(O)c(/C=N/c2ncc(Cc3ccc(Cl)cc3Cl)s2)sc1=S (configuration not stated)", "inactive"),
    ("CC(C)c1ccc(-c2cnc3nonc3n2)cc1", "inactive"),
    ("COc1ccc2[nH]cc(C3(c4c[nH]c5ccc(OC)cc45)C(=O)Nc4ccc(Cl)cc43)c2c1", "inactive"),
    ("COc1ccc(/C=C/C(=O)CCC(=O)O)cc1OC", "inactive"),
    ("N#Cc1ccc(-c2ccc(-c3cccs3)o2)cc1F", "inactive"),
    ("ClC1(Cl)C2CCCCCCC21 (configuration not stated)", "inactive"),
    ("NC(=O)N/N=C\\c1ccc([N+](=O)[O-])o1", "inactive"),
    ("CCN(C(=O)CCl)C(C)(C)C(SSSC(c1ccc(Cl)cc1)C(C)(C)N(CC)C(=O)CCl)c1ccc(Cl)cc1 (configuration not stated)", "inactive"),
    ("NS(=O)(=O)c1ccc(CCn2c(SCC(=O)N/N=C/c3ccccc3O)nc3ccccc3c2=O)cc1", "inactive"),
]
